TARGET OR SYSTEM: recombinant human proMMP9 (full length, latent form) (human, UniProt P14780 20-707)
Sequence (P14780 20-707): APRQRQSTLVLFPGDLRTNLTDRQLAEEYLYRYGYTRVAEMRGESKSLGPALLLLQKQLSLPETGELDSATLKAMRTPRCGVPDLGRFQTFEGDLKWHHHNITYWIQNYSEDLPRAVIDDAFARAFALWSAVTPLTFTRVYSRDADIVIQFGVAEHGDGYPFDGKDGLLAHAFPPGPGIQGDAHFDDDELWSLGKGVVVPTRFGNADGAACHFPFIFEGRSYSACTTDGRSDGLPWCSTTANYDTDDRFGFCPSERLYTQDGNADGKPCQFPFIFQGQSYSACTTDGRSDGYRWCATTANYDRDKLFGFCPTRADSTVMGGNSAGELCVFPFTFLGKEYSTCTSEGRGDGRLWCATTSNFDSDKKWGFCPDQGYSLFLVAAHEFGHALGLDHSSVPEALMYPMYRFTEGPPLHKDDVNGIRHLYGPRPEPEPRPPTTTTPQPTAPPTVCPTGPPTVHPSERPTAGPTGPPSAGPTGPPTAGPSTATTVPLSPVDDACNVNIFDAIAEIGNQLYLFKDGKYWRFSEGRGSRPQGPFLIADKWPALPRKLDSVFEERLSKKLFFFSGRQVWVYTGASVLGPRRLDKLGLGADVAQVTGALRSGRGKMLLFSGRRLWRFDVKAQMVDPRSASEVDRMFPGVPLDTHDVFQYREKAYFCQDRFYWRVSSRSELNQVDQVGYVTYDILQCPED
PROCEDURE TEXT: cell-based or functional assay
So I've got a bunch of binders here, and I need their Efficacy, DQ-gelatin digestion, MMP3/MMP9 assay values.
Answers are plain numbers, in %.

Give Efficacy, DQ-gelatin digestion, MMP3/MMP9 assay for each of the items listed below.
1. F20-VH-GL1-V1-V9/B08-VL-GL6c (antibody, human IgG4 S228P, V domains shown) VH: EVQLVESGGGLVQPGRSLRLSCAASGFTFNDYPMHWVRQAPGKGLEWVSGISSQSGSVGYAESVKGRFTISRDNAKNSLYLQMNSLRAEDTALYYCARDKIYYGSGSYDFYYYYGMDVWGQGTTVTVSS VL: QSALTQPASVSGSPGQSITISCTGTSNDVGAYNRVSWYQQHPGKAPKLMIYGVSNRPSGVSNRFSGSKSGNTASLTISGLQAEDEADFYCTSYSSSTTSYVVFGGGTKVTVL
2. F20-VH-GL1-V4-V9-V14/B03-VL-GL1c (antibody, human IgG4 S228P, V domains shown) VH: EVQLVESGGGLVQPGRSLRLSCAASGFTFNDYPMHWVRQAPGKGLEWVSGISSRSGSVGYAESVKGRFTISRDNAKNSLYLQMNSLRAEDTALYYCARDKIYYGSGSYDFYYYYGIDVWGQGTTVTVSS VL: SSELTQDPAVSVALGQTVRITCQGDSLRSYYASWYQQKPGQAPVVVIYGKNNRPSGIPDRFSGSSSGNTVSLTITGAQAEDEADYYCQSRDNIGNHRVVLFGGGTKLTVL

100
100
